Recorded thermal shift delta Tm for the following compounds
tested on: LOC_OS01G51400-cb002; assay: thermal shift delta Tm vs DMSO control; higher = stronger stabilization (binding); conditions: 12.5 µM; protein concentration 2 µM;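 also: purified Escherichia coli-expressed rice kinase domain construct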
outcome-measure: thermal shift delta Tm (°C)

compound=Cc1cc(N2CCOCC2)cc2[nH]c(-c3c(NC[C@@H](O)c4cccc(Cl)c4)cc[nH]c3=O)nc12 observed_value=0.28
compound="CC1=C(C(=O)Nc2cc3cn[nH]c3cc2F)C(c2ccc(C(F)(F)F)cc2)CC(=O)N1 (centres undefined)" observed_value=-0.23
compound="CC(C)n1nc(-c2cc3cc(O)ccc3[nH]2)c2c(N)ncnc21 [Torkinib (PP242)]" observed_value=0.2
compound=C[C@H]1CNC(=O)c2cnn3ccc(nc23)N[C@H](C)c2cc(F)ccc2O1 observed_value=0.22
compound=COc1cc(N2CCN(C)CC2)ccc1Nc1nccc(-c2cn(C)c3cnccc23)n1 observed_value=0.19
compound=Cc1c(NC(=O)c2ccc(C(C)(C)C)cc2)cccc1-c1cn(C)c(=O)c(Nc2ccc(C(=O)N3CCOCC3)cc2)n1 observed_value=0.2
compound="O=C(NCc1ccccc1)c1csc(Nc2ccncn2)n1 [Thiazovivin]" observed_value=0.24
compound=C[C@@H](Nc1cc(F)cc(F)c1)c1cc(C(=O)N(C)C)cc2c(=O)cc(N3CCOCC3)oc12 observed_value=0.01
compound=CNc1nc(-c2ccc3c(N)n[nH]c3c2)cc(N2C[C@@H](C(=O)NC3CCCCC3)CC[C@H]2C)n1 observed_value=0.44
